Values were extracted from PubChem BioAssay (NCI).

Tested on: HS 578T breast
Experiment: NCI-60 one-dose screen, 48 h (100 = growth as untreated, 0 = no growth, -100 = all killed)
Details: 10 µM unless noted
This is part of a sample that, as a whole, favours compounds with a hit. Of some 83,000 tested, about 20% had one in any assay.
Measured growth, listed per entry for reference.
Give just the number in %; leave the unit off.

// lookup growth for CN(C)c1cccc2c(S(=O)(=O)Nc3cccc(-c4csc(NC(=O)CCCCCN5CCN(CCO)CC5)n4)c3)cccc12
85.1

Could you do the same for Cn1c(SCC(=O)c2ccc(Br)cc2)nc2ccccc2c1=O , please?
102

Also, N#Cc1c(-c2cccs2)c(C#N)c(=O)n(Cc2nc3ccccc3[nH]2)c1N please.
102

Likewise for O=C(N/N=C\c1ccc([N+](=O)[O-])cc1)c1ccc2nc(-c3ccc(Br)cc3)[nH]c2c1 ?
23.2

# ---- query molecule ----
// returns reported growth for input NNc1nnc2nc(Nc3ccccc3)nc(Nc3ccc(S(N)(=O)=O)cc3)n12
99.6

---

Some compounds, each annotated with its measured growth.
System: HCT-15 colon
Experiment: NCI-60 one-dose screen, 48 h (100 = growth as untreated, 0 = no growth, -100 = all killed)
Conditions: 10 µM unless noted
Compounds without any hit were thinned out: in the full panel of roughly 83,000, 20% have a hit.
Field format: number, assumed %, no unit text.

Which measured growth belongs to C/C(=N/N)c1nnn(-c2ccc(Br)cc2)c1C , tested on HCT-15 colon?
103

Lookup O=C(/C=C/c1cccc(F)c1)c1cccc(OCCCCOc2cccc(C(=O)/C=C/c3cccc(F)c3)c2)c1
97.6

And the next one, CN1CCN(Cc2ccc(NC(=O)c3cncc(C#Cc4cnc5ccc(OCCCS(C)(=O)=O)nn45)c3)cc2C(F)(F)F)CC1 ?
3.14

Thanks! And C#CCOc1cccc(-c2nc(N)nc(Nc3ccccc3SSc3ccccc3Nc3nc(N)nc(-c4cccc(OCC#C)c4)n3)n2)c1 ?
28.6

Same for Cn1cc(-c2cc3ncnc(Nc4ccc(NC(=O)Nc5cc(C(C)(C)C)on5)cc4)c3s2)cn1
27.9

Now the compound COc1ccc(/C=N/NC(=O)CSc2nc(-c3cnccn3)cc(-c3cccs3)c2C#N)cc1
87.3

---

Tested on: A498 renal
Test: NCI-60 one-dose screen, 48 h
Conditions: 10 µM unless noted
About 83,000 compounds went through this panel and 20% of them were active in at least one assay; those are over-represented in the sample as a whole. The source made the active and inactive calls. The calls were made as follows: active = growth percent below 10; inactive = the rest.
The reply should be one of these categories: class 1 = active, class 0 = inactive

A selection of reference data follows.
Tell me the assay call for CCOP(=O)(OCC)OC[C@]12CC[C@@H](C)[C@H](C)C1C1=CC[C@@H]3[C@@]4(C)CCCNC(C)(C)[C@@H]4CC[C@@]3(C)[C@]1(C)CC2 (stereo partly drawn) please.
class 0

Another: COc1ccccc1/C=C/C(=O)c1nnn(-c2ccc(F)cc2)c1C
class 0

Try COc1ccc(CC(C)=C(c2ccc(OCCN3CCCC3)cc2)c2ccc(OCCN3CCCC3)cc2)cc1 next.
class 1

# repeat for O=c1c2ccccc2cc2n1CCN=C2c1ccccc1
class 0

Please give the result for Cc1ccc(S(=O)(=O)NCCCNc2nc(Nc3ccc(N4CCN(C)CC4)cc3)nc3ccsc23)cc1 too.
class 0

Consider next the compound O=C(CCl)Nc1ccc(NC(=O)c2cc(Cl)ccc2O)c(Cl)c1 in the same way.
class 0

Repeat for the following compound: CC(=C(c1ccc(OCCCN(C)C)cc1)c1ccc(OCCCN(C)C)cc1)c1ccc(Cl)cc1
class 0

How about this compound: CCOC(=O)c1ccc(NC2=CC(=O)C(C)=C(C)C2=O)cc1
class 0

// next entry
What classification did Clc1ccc2[nH]cc(-c3cncn3CCc3ccc4c(c3)OCO4)c2c1 end up with in this test?
class 0

---

Test system: UO-31 renal
Experiment: NCI-60 one-dose screen, 48 h (100 = growth as untreated, 0 = no growth, -100 = all killed)
Settings: 10 µM unless noted
Compounds without any hit were thinned out: in the full panel of roughly 83,000, 20% have a hit.
growth below 40% gives not satisfied; growth at or above it gives satisfied.

Hi, just wondering whether Cn1cc(-c2cc3ncnc(Nc4ccc(CC(=O)Nc5nc(C(C)(C)C)cs5)cc4)c3s2)cn1 shows growth of 40% or higher.
not satisfied

Another compound to look at: COC(=O)CNC(=O)c1cccc(-c2cc(=O)c3c(OC)c(OC)c(OC)cc3o2)c1
satisfied

Can you handle O=C(CSc1nnc(-c2cccs2)n1-c1ccccc1)Nc1ccccc1 next?
satisfied

Also, CN1CCN(Cc2ccc(NC(=O)c3cncc(C#Cc4cnc(N)nc4)c3)cc2C(F)(F)F)CC1 please.
not satisfied

Same question for CCN(CC)c1ccc(/C=N/NC(=O)c2ccc(NS(C)(=O)=O)cc2)cc1 please.
not satisfied

How about Oc1[nH]c2ccc(Cl)cc2c1N=Nc1nc(N=Nc2c(O)[nH]c3ccc(Cl)cc23)nc(N2CCCCC2)n1 ?
satisfied

Same question, CC1(C)CC[C@]2(C(=O)O)CC[C@]3(C)C(=CC[C@@H]4[C@@]5(C)CC[C@H](NOCCCN)C(C)(C)[C@@H]5CC[C@]43C)[C@@H]2C1 this time
satisfied

***
Could you please find out whether C#CCn1cc(/C=N/Nc2nc(-c3ccc(Br)cc3)cs2)c2ccccc21 has growth that meets 40% or exceeds it?
satisfied

---

Test system: T-47D breast
Assay: NCI-60 one-dose screen, 48 h (100 = growth as untreated, 0 = no growth, -100 = all killed)
Conditions: 10 µM unless noted
The panel holds about 83,000 compounds, 20% with a hit somewhere; the sample as a whole holds those more often.
Entries and their measured growth follow.
Quick reminder: number only, in %, skip the unit.

Example entries begin here.
What measured growth is associated with CC[C@H](CC[C@@H](C)[C@H]1CC[C@H]2[C@@H]3CC(=O)C4=CC(=O)/C(=C/c5ccc([N+](=O)[O-])cc5)C[C@]4(C)[C@H]3CC[C@]12C)C(C)C on T-47D breast?
89.1

Lookup Cc1[nH]c(C(=O)Nc2ccc(C(=O)NCC3CCNCC3)cc2OC(C)C)c(Cl)c1Cl
77.6

Follow-up entry: CN1CCN(c2ccc(Nc3nc(NCCNS(=O)(=O)c4ccc(Cl)cc4)c4sccc4n3)cc2)CC1
84.3

What about O=C(CCCCCCNC(=O)C(O)(O)C(F)(F)F)Nc1nc2ccccc2s1 ?
12.1

What about CN(C)c1ccc(-c2cc(-c3c[nH]c4ccccc34)nc(N)c2C#N)cc1 ?
39.9

Param item: O=c1c2ccccc2cc2n1CCN=C2c1ccccc1
91.7

Subsequent entry: CC[C@]12CC(C(=O)OC)=C3Nc4ccccc4[C@@]34CCN(C14)[C@@H]1c3cc4c(cc3O[C@@H]1[C@H]2O)NC1=C(C(=O)OC)C[C@@]2(CC)C3N(CC[C@@]143)C[C@H]1O[C@H]12 (stereo partly specified)
18.2

Now the same for CN(C)CCNc1ccc2ncc(C#Cc3cncc(C(=O)Nc4ccc(CN5CCN(C)CC5)c(C(F)(F)F)c4)c3)n2n1
78.7

Pending molecule:
Record lookup: for T-47D breast, what growth belongs to Brc1ccc(-c2cc(-c3ccc4c(c3)OCCO4)n[nH]2)s1 ?
22.5

---

System: ACHN renal
Test: NCI-60 one-dose screen, 48 h (100 = growth as untreated, 0 = no growth, -100 = all killed)
Conditions: 10 µM unless noted
This is part of a sample that, as a whole, favours compounds with a hit. Of some 83,000 tested, about 20% had one in any assay.
So basically: is growth under 70%? Then 1. Not under? Then -1.

Completed entries (count: 4):
In plain terms, does Clc1ccc2[nH]cc(-c3cncn3CCc3ccc4c(c3)OCO4)c2c1 come in under 70% for growth?
-1

Please give the result for CN(C)c1ccc(-c2cc(-c3c[nH]c4ccccc34)nc(N)c2C#N)cc1 too.
1

Proceed to Cc1ccccc1NC(=O)Nc1nc2ccc([N+](=O)[O-])cc2s1
1

Try this compound too: C[C@H](Nc1ncnc2ccc(-c3cnc(Cl)c(NS(C)(=O)=O)c3)cc12)c1ccccc1
1

Next:
Criterion: growth strictly below 70%. Is it met by COc1cc(C(=O)c2cc(C(C)=O)c3ccc(C)cn23)cc(OC)c1OC ?
1

Another: Cc1cc(=O)oc2cc(OCCCOc3ccc(/C=C/C(=O)Nc4ccc(Br)cc4)cc3)ccc12
1

Same question for C=C(C)[C@@H]1CC[C@]2(COCCCNCCCN)CC[C@]3(C)[C@H](CC[C@@H]4[C@@]5(C)CC[C@H](O)C(C)(C)[C@@H]5CC[C@]43C)[C@@H]12 please.
1

What about CSc1ccc(C(=NNS(=O)(=O)c2ccc(C)cc2)c2ccc(Cl)cc2)cc1 ?
-1

---

Test system: HCT-15 colon
Test: NCI-60 one-dose screen, 48 h (100 = growth as untreated, 0 = no growth, -100 = all killed)
Settings: 10 µM unless noted
Method: Growth inhibition of the HCT-15 human tumor cell line is measured as a screen for anti-cancer activity. Cells are grown in 96 well plates and exposed to the test compound for 48 hours. Compounds are tested at a single concentration, which is 10^-5 M for most compounds. The reported endpoint is percent growth (GI% or GIPRCNT), where numbers from 0 - 100% represent growth inhibition, and numbers from -100% - 0 represent cell death. For example, a value of 40 represents 60% growth inhibition. […]
About 83,000 compounds went through this panel and 20% of them were active in at least one assay; those are over-represented in the sample as a whole.
Reported property: growth (%)
Value expressed in %; do not type the unit.

I am curious: what growth value has been reported for COc1cccc2c1[C@H](OC)[C@]13O[C@@]1(C2=O)[C@H](O)[C@H](C)[C@@](O)(C(=O)[C@@H]1O[C@H]1C)[C@@H]3O ?
-14.8

For O=c1[nH][nH]c(-c2ccc(F)cc2)c1-c1nc2ccccc2s1 then?
85

More entries:
Recorded growth for NC(=O)c1c(NC(=O)c2ccc(C(F)(F)F)cc2)sc2c1CCC(=O)C2 , please?
-21.2

# iterate: CCN(CC)c1ccc(/C=N/NC(=O)c2ccc(S(N)(=O)=O)cc2)c(O)c1
20.9

Next molecule: Cc1ccc2c(n1)C(=O)C(Cl)=C(Nc1ccc(C(F)(F)F)cc1)C2=O
-58.6

Same question, C#C[C@]1(O)CC[C@H]2[C@@H]3CC=C4c5sc(N6CCN(C)CC6)nc5CC[C@]4(C)[C@H]3CC[C@@]21C this time
8.12

Would you kindly repeat that for O=C(CSc1nc2ccccc2c(=O)n1-c1ccccc1)Nc1ccc(S(=O)(=O)Nc2nccs2)cc1 ?
66.5

Would you mind doing COc1ccc(NC(=O)CCCCCCNC(=O)C(O)(O)C(F)(F)F)cc1 as well?
67.7

What would you report for CCCCN1C(=O)/C(=c2\sc3n(c2=O)C2C(NN=3)N(CC)C(=O)N2CC)c2cc(C)ccc21 (stereo not drawn) ?
86.2

And for C/C(=N\NC(=O)/C=C/CC(=O)O)c1nnn(-c2ccc([N+](=O)[O-])cc2)c1C ?
105

Follow-up item: CN1CCN(Cc2ccc(NC(=O)c3cncc(C#Cc4cnc5ccc(N)nn45)c3)cc2C(F)(F)F)CC1
49.5

Entry C#Cc1nc(/C=C\CCCCCCC(=O)NO)cs1 please
65.6

Subsequent entry: O=C1[C@H]2Cc3c([nH]c4ccccc34)[C@H](c3ccc(Cl)cc3)N2C(=O)CN1C1CCN(CC2CCCCC2)CC1
28.6

Can you handle COc1cc2oc(-c3cccc(NC(=O)[C@@H](N)C(C)C)c3)cc(=O)c2c(OC)c1OC next?
97.9
